B1: tRNA (parent)
chain: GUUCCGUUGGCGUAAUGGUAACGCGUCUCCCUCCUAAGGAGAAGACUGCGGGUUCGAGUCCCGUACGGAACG

Variants of: B1
Test Summary: yeast fitness relative to wild type (ratio to wild type); higher = fitter; tRNA-Arg(CCU), competitive growth, 37 C, YPD
Fewer inactive variants are shown than the library holds.
Measurement Kind: yeast fitness

1. U2C C27U A36G ... 0.575
2. U28A A69C ... 0.88
3. A15C A43U A65G ... 0.583
4. A20C A40G A65G ... 0.57
5. G25C C31G C61G C66G ... 0.674
6. C49G G67U ... 0.695
7. C24U C33G C34U A57U ... 0.583
8. G10C G25C ... 0.615
9. U3A C49U A69U ... 0.759
10. G56A G58C C61G ... 0.707
11. G17A A57U ... 0.644
12. G25A G44C ... 1.04
13. C31U G48A ... 0.949

Each recorded value in this set is attributed to the RNAGym collection of RNA variant scans (doi:10.1126/science.aae0568).
